Biological target: T1, canine OX40L, full length membrane form, expressed on HEK293 cells (canine)
T1 construct: also called OX40L expressing HEK; HEK OX40L cells
T1 chain: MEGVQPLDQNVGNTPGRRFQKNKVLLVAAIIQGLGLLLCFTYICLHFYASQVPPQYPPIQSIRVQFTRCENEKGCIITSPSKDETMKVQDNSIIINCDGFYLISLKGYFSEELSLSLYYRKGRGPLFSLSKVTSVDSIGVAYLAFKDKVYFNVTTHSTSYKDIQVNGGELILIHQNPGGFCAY
Assay: flow cytometry, OX40L HEK minus WT HEK
reported_property: GEO mean difference
Form rule: numeric answer, no unit written next to it.

binder	GEO mean difference
PMX042 (antibody, V domains shown, also called PMX42) VH: EVQLVESGGDLVKPGGSLRLSCVASGFTFSSYHMSWVRQAPGKGLQWVAYITSGGSTTSYADAVKGRFTISRDNAKNTLYLQMDSLRADDTAVYYCASDLVLLLGGADYWGQGTLVTVSS VL: SYELTQPPSVNVTLRETAHITCGGDSIGRKYVQWIQQHPGQAPVVIIYKDYNRPTGIPERFSGANSGNTATLTISGALAEDEADYYCQVGDSGTKAVFGGGTHLTVL	1.48e+06
PMX060 (antibody, V domains shown, also called PMX60) VH: EVQLVESGGDLMKPGGSLRLSCVASGFTFSSFPMSWVRQAPGKGLQWVAYIHSGGSSTSYADAVKGRFTISRDNAKNTLYLQMNSLRAEDTAIYYCARTFPTVAADNWFYYWGQGTLVTVSS VL: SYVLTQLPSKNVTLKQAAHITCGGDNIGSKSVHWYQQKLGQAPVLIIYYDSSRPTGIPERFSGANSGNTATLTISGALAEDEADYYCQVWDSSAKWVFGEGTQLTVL	3.07e+06
PMX065 (antibody, V domains shown, also called PMX65) VH: EVQLVESGGDLVKPGGSLRLSCVASGFTFNNYEMYWVRQAPGKGLEWVARIYESGSTTFSAEAVTGRFTISRDNAKNMVYLQMNSLRAEDTAVYYCASASSSSWRFDYWGQGTLVTVSS VL: SYVLTQLPSVSVTLGQTARITCGGDSIGRKNVCWFQQRLGQAPELIIYDDRSRPSGIPERFSGANSGNTATLTISGALAEDEADYYCQVWDSSTGVFGGGTHLTVL	3.52e+06
PMX054 (antibody, V domains shown, also called PMX54) VH: EVHLVESGGDLVKPEGSLRLSCVVSGFTFSSYDMSWVRQAPGKGLQWVAYISSDGRSTGYTDAVKGRFTISRDNAKKTLYLQMNSLRSEDTAVYYCAKETPRWGFDYWGQGTLVTVSS VL: SYVLTQLPSVSVTLRQTARITCGGASIGSKNVYWHQQKLGQAPLLIIYDDSSRPSGIPERFSGANSGNTATLTISGALAEDEADYYCQVWDSSTSVFGGGTHLTVL	3.24e+06

Request: Recorded GEO mean difference for PMX082 (antibody, V domains shown, also called PMX82) VH: EVQLVESGGDLVKPGGSLRLSCVASGFTFSSHHMTWVRQAPGKGLQWVAYIVSGGTNTNYADAVKGRFTISRDNAKNTLYLQMNSLRAEDTAVYYCASDLVLAVGAPFYWGQGTLVTVSS VL: SYELTQPPSVNVTLRETAHITCGGDSIGRKYVQWIQQNPGQAPVVIIYKDINRPTGIPERFSGANSGNTATLTISGALAEDEADYYCQVGDSGTKAVFGEGTQLTVL , please?
Response: 531000
